# credit: patent US8685992B2

Test system: LNCaP
ASSAY: Cancer cell growth inhibition, LNCaP
Format: cell-based, human
CONDITION CONTEXT: Homo sapiens, Prostate Cancer, 72 h treatment
Entries and their log10 IC50 values follow.
Parameter value (number): base-10 log of IC50 in µM.

These recorded examples may help you get a feel for the data.
[
  {
    "MOLECULE SMILES": "O=C(NO)c1ccc(CNC(=O)c2[nH]c(-c3ccoc3)cc2-c2ccc(O)cc2)cc1",
    "log10 IC50": 1.00
  },
  {
    "MOLECULE SMILES": "O=C(NO)c1ccc(CNC(=O)c2[nH]c(-c3ccc(O)cc3)cc2-c2ccsc2)cc1",
    "log10 IC50": 0.61
  },
  {
    "MOLECULE SMILES": "COc1ccc(-c2cc(-c3ccsc3)c(C(=O)NCc3ccc(C(=O)NO)cc3)[nH]2)cc1",
    "log10 IC50": 0.49
  },
  {
    "MOLECULE SMILES": "COc1ccc(-c2cc(-c3ccoc3)c(C(=O)NCc3ccc(C(=O)NO)cc3)[nH]2)cc1",
    "log10 IC50": -0.44
  }
]

Next molecule, please.
Task item: GET /values?readout=log10 IC50&item= O=C(NO)c1ccc(CNC(=O)c2[nH]c(-c3ccc(O)cc3)cc2-c2ccoc2)cc1
Reply: 0.24
